assay: yeast display, Sf9 membrane polyspecificity reagent, FACS + sequencing; frameworks hold sequencing errors
observationType: polyreactivity (PSR sort gate)

Solved entries:
QVQLVESGGGLVQAGGSLRLSCAASGRIFGVYAMGWYRQAPGKERELVAAISFSGGRTYYADSVKGRFTISRDNAKNTVYLQMNSLKPEDTAVYYCSALGPYDWLWAGDYWGQGTQVTVSS :: low polyreactivity
QVQLVESGGGLVQAGGSLRLSCAASGITFYRYAMGWYRQAPGKERELVAAINSSGGNTYYADSVKGRFTISRDNAKNTVYLQMNSLKPEDTAVYYCAADRVSWVKHYYWGQGTQVTVSS :: high polyreactivity
QVQLVESGGGLVQAGGSLRLSCAPSGNTFWDNAMGWYRQAPGKERELVAAIRWSTGSTHYADSVKGRFTISRDNAKNTVYLQMNSVKPEDTAVYYCDATDYYYYRDKYYGYDYWGQGNQVTVSS :: low polyreactivity
QVQLVESGGGLVQAGGSLRLSCAASGLTFNFNAMGWYRQAPGKERELVAAISYRAGSTYYADSVKGRFTISRDNAKNSVYLQMNSLKPEDTAVYYCAADGYYYLKSGTYVSDYWGQGTQVTVSS :: low polyreactivity
QVQLVESGGGLVQAGGSLRLRCADSGSIFHCNAMGWNRQAPGKERELVAGITTSGGTTYYADTVKGRFTISRDNAKNTVYVQMKSLKPEATAVYYCAARIIRWRPRWPSYGKYDYWGQVTQVTVSS :: low polyreactivity
QVQLVESGGGLVQAGGSLRLSCAASGSIFWVYAMGWYRQAPGKERELVAAISSGGSTNYADSVKGRFTISRDNAKNTVYLQMNSLKPEDTAVYYCAAVIRTVRERYGFWGQGTQVTVSS :: high polyreactivity
QGQLVESGGGLVQAGGSLRLSCAASGSIFDLNAMGWYRQAPGKERELVAAISSGGGTYYADSVKGRFTISRDNAKNTVYLQMNCLKPEDTAVYYCNRVTRWTYNYWGQGTQVTVSS :: high polyreactivity

Could you now look at the following sequence, please?
q: Indicate the recorded polyreactivity (PSR sort gate) value for this sequence: `QVQLVESGGGLVQAGGSLRLSCSASGFTFRVNALGWYRQAPGKERELVAAITYSGGSTYYADSVKGRFTISRDNAKNTVYLQMNSLNPEDTAVYYCAAGYFFPRLRFRNYAYGYWGQGTQVTVST`
a: high polyreactivity

* * *

assay: yeast display, Sf9 membrane polyspecificity reagent, FACS + sequencing; frameworks hold sequencing errors
observationType: polyreactivity (PSR sort gate)

QVQLVESGGGLVQAGGSLRLSCGASGSTFYYYTMGWYRQAPGKERELVAAISFIGGSTYYADSVKGRFTISRDNAKNTVYLQMNSLKPEDTAVYYCAAEFYGLVSLSFSYDYWGQGTQVTVSS :: low polyreactivity
QVQLVESGGRLVQAGGSLRLICAASGFIFWYYAMGWYRQAPGKERELVADISSGGSTNYADSVKGRFTISRDNAKNTVYLQMNSLKPEDTAVYYCAADTFRRDDYWGQGTQVTVSS :: low polyreactivity
QVQLVESGGGLVQAGGSLRLSCAASGSIFRWYAMGWYRQAPGKERELVAAITSGGSTYYADSVKGRFTISRDNAKNTVYLQMNSLKPEDTAVYYCNAAKLASHTYDYWGLGTQVTVSS :: low polyreactivity

* * *

assay: yeast display, Sf9 membrane polyspecificity reagent, FACS + sequencing; frameworks hold sequencing errors
observationType: polyreactivity (PSR sort gate)

Solved cases (5 shown):
QVQLVESGGGLVQAGGSLRLSCAASGFIFTQYAMGWYRQAPGKERELVAGITSSGNTYYADSVKGRFTISRDNAKNPVYLQMNSLKPEDTAVYYCAARSASRRMDYWGQGTQVTVSS :: high polyreactivity
QVQLVESGGGLVQAGGSLRLSCAASGRIFAYYAMGWYRQAPGKERELVAAITSRGGRTYYADSVKGRFTISRDNAKNTVYLQMNSLKPEDTAVYYCAAKGRPDGKYDYWGQGTQVTVSS :: high polyreactivity
QVQLVESGGGLVQAGGSLRLSCAASGFTFDFYAMGWYRQAPGKERELVAAINWSGSSTYYADSVKGRFTISRDTAKNTVYLQMNSLKPEDTAVYYCAAQVYYTLFPDVYTMYYWGQGTQVTVSS :: high polyreactivity
QVQLVESGGGLVQAGGSLRLSCASSGRNFYSYVMGWYRQAPGKERELVAAITRSGGTTYYADSVKGRITISRDNAKNTVYLEMYSLKPEDTAVYYCAAYVGGIRYYSWGQGTQVIVSS :: high polyreactivity
QVQLVESGGGLVQAGGSLRLSCAASGYTFLDYAMGWYRQAPGKERELFAAINSGGSTYYADSVKGRFTISRDNAKNSVYFQMNSLNPEDTAVSYCAREDYVSYRLLYYLFDYWGQGTQVTVSS :: low polyreactivity

Could you tell me polyreactivity (PSR sort gate) for each of these sequences? They are listed below.
1. QVQLVESGGGLVQAGGSLRLSSAASGFTFGNNAMVWYRQAPGKEREFVATISRRGGSTYYADSVKGRFTISRDNAKNTVYLLMNSLKPEDTAVYYCAVDRAGIKFAAGYDYWGQGTQVTVSS
2. QVQLVESWGGLVQAGGSLRLSCAASGRTFAYYAMRWYRQAPGKERELVAAISSGGRTNYADSVKGRFTISRDNAKNTVYLQMNSLKPEDTAVYYCARKASYQIYNGQYGGFGYGYWGQGTQVTVSS

a:
1: high polyreactivity; 2: high polyreactivity

# per-item lookup of polyreactivity (PSR sort gate); items listed below
1. QVQLVESGGGLVQAGGSLRLSCAASGFTFGSYAMGWYRQAPGKERELVAAISGRGGSTYYADSVKGRFTISRDNAKNTVYLQMNSLKPEDTAVYYCATDYSRTFDYWGQGTQVTVSS
2. QVQLVESGGGLVQAGGSLRLSCAASGLTFVDNAMGWYRQAPRKERELVAGITQSGGSTNYADSVKGRFTISRDNAKNTVYLQMNSLKPEDTAVYYCAKDTYRAYFRWEYGYWGQGTQVTVSS
3. QVQLVESGGGLVQAGGSLRLSCAASGLIFKSNAMGWYRPAPGKERELVAAITRTGGSTYYADSVKGRFTISRDNAKNTVYLQMNSLKPEDTAVYYCAKVVGRWRSSWELDYWGQGTQVTVSS
4. QVQLVESGGGLVQAGRSLRLSCAASGSTILYYAMGWYRQAHGKERELVARITTRGSRTYYADSVKGRFTISRDNAKNTVYLQMNSLKPEDTAVYYCNKVRPGYGVTYLVGYWGQGTQVTVSS
5. QVQLVESGGGLVQAGGSLRLSCAASGRILDINTMGWYRHPPGKERELVAAITWSGVSTYYADSVKGRFTISRDNAKNTVYLQMNSLKPEDTAVYYCAARPYYTWRYLPTKSGDYWGQGTQVTVSS
6. QVQLVESGGGLVQAGVSLSLSCAASGITFIIYVMGWYRQAPGKERELVAAISSTGSTYYADSVKGRFTISRDNAKNTVYLQMNSLKPEDTAVYYCAARGRRSSNGFYYWGQGTQVTVSS

a:
1: high polyreactivity; 2: low polyreactivity; 3: high polyreactivity; 4: high polyreactivity; 5: low polyreactivity; 6: high polyreactivity

Hey, can you go through the list below and give me polyreactivity (PSR sort gate) for every item?
1. QVQLVESGGGLVQAGGSLRLSCAASGRTFFYYAMGWYRQSPGKERELVATITGIGGSTYADSVKGRFTISRDNAKNTVYLQMNSLKPEDTAVYYCNAERGVYWGRYPYKYDYWGQGTQVTVSS
2. QVQLVESGGGLVQAGGSLRLSCAASGIIFGDYAMGWYRQAPGKERELVAGISITGDSTYYADSVKGRFTISRDNAKNTVYLQMNSLKPEDTAVSYCAAGWALIFDYWGQGTQVTVSS

a:
1. low polyreactivity
2. low polyreactivity

* * *

assay: yeast display, Sf9 membrane polyspecificity reagent, FACS + sequencing; frameworks hold sequencing errors
observationType: polyreactivity (PSR sort gate)

QVQLVESGGGLVQAGGSLRLSCAASGIIFSIYAMGWYRQAPGKERELVAVISRSSGSTYYADSVKGRFTISRDNAKNTVYLQMNSLKPEDTAVYYCAADRYSYGSNGYPRFEYYYWGQGTQVTVSS :: high polyreactivity
QVQLVESGGGLVQAGGSLRLSCAASGFTFAYYAMGWYRQAPGKERELVAAITRGGGRTFYADSVKGRFTISRDNAKNTVYLQMNSLKPEDTAVYYCAREVYRHYAPVGYDYWGQGTQVTVSS :: high polyreactivity
QVQLVESGGGLVQAGGSLRLSCAASGSIFKRNAMGWYRQAPVKETELVAAITRSGSSTYYADSVKGRFKISRDNAKNTVYLQFNSLKPEDTSVYYCAAQYESNGYTGYYWGQGTQVSVSS :: high polyreactivity

* * *

assay: yeast display, Sf9 membrane polyspecificity reagent, FACS + sequencing; frameworks hold sequencing errors
observationType: polyreactivity (PSR sort gate)

QVQLVESGGGLVQAGGSLRLSCAASGSIFSHNAMGGYRQAPGKERELVASITGSGGSTYYAASVKGRFTISRDNAKNTVYLQMNSLKPEDTAVYYCAATYYPDVRGMDYWGQGTQVTVSS :: low polyreactivity
QVQLVESGGGLVQAGGSLRLSCAASGSNIERNAMGWYIQAPGKERELVANITWSGVSTYYADSVKGRFTISRDNAKNTVYLQMNSLKPEDTAVYYCNADYSYRHWYDPGQYGQAMGYWGQGTQVTVSS :: low polyreactivity
